- systemUnderTest: T1, human CD22-ECD-His protein (human, UniProt P20273 20-687)
- T1 construct: Made in house in HEK293E; also called hCD22-ECD-His; recombinant human CD22-ECD His protein; not shown: His tag
- T1 sequence: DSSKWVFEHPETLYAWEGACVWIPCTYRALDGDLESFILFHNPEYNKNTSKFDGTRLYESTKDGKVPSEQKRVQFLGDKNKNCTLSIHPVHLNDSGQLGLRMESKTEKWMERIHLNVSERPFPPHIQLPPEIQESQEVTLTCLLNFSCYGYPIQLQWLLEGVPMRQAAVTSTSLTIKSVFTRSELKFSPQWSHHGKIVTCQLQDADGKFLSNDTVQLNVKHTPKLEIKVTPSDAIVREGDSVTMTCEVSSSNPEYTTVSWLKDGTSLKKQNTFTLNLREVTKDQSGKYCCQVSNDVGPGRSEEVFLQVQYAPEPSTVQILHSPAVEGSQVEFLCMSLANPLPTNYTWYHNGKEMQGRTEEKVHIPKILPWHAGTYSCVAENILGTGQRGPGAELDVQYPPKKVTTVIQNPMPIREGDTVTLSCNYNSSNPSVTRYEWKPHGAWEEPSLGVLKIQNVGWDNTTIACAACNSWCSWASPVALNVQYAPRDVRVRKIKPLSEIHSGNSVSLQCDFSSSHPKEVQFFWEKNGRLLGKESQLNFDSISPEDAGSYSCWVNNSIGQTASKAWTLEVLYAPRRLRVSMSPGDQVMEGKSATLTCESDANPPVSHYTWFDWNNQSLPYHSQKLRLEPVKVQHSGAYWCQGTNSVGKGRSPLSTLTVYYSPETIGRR
- methodNotes: ELISA, Ab 0.01 nM
quantityKind: OD450 (OD450)
Answers are plain numbers, in OD450.

binder="F1.172.13 (antibody, human IgG1, kappa, V domains shown, Human-murine chimeric IgG1, kappa) VH: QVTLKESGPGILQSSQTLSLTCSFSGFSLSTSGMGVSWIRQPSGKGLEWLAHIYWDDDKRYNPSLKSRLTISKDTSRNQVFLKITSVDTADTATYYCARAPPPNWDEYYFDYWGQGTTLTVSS VL: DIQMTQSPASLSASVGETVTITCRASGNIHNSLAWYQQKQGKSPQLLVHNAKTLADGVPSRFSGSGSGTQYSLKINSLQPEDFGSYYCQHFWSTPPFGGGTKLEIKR" measvalue=2.11
binder="F2.205.9 (antibody, human IgG1, lambda, V domains shown, Human-murine chimeric IgG1, lambda) VH: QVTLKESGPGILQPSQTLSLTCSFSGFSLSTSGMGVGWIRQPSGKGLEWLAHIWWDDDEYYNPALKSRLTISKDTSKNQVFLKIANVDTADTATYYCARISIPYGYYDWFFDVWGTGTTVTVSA VL: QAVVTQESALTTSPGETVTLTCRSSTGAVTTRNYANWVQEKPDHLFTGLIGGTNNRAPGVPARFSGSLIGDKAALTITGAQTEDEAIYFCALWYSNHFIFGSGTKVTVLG" measvalue=1.48
binder="F2.55.1 (antibody, human IgG1, lambda, V domains shown, Human-murine chimeric IgG1, lambda) VH: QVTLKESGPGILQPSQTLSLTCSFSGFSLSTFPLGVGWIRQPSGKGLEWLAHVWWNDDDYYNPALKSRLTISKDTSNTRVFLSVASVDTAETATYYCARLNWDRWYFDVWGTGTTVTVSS VL: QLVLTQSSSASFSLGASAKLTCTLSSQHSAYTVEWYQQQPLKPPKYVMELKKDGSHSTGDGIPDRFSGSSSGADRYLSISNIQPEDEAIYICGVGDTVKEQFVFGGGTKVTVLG" measvalue=1.3

The value of OD450 measured for the binder F2.42.9 (antibody, human IgG1, lambda, V domains shown, Human-murine chimeric IgG1, lambda) VH: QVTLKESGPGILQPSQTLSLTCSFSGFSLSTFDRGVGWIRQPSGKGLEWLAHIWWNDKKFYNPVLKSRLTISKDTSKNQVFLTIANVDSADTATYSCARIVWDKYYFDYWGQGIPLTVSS VL: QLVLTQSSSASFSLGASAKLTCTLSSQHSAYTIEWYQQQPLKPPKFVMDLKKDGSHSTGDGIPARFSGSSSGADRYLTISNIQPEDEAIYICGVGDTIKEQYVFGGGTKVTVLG turned out to be 1.95
